Where these numbers come from: ChEMBL document CHEMBL4340569

Tested on: Staphylococcus aureus
testDetails: Antimicrobial activity against Staphylococcus aureus ATCC […] by broth dilution method
Format: functional
conditionParameters: ATCC 29213
Listed here: items and their measured MIC.
readoutName: MIC (µM)

>>> assayvalue("CN1/C(=C/c2ccc(/C=C/c3cc(-c4ccc(Br)cc4)cc(-c4ccc(Br)cc4)[o+]3)cc2)C(C)(C)c2ccccc21")
24.5
>>> assayvalue("Fc1ccc(-c2cc(/C=C/N3CCNCC3)[o+]c(-c3ccc(F)cc3)c2)cc1")
3.8
>>> assayvalue("CN1/C(=C/C=C/c2cc(-c3ccc(Br)cc3)cc(-c3ccc(Br)cc3)[o+]2)C(C)(C)c2cc(Cl)ccc21")
45.1
>>> assayvalue("OCCN(CCO)c1ccc(/C=C/c2cc(-c3cccc(F)c3)cc(-c3cccc(F)c3)[o+]2)cc1")
2.1
>>> assayvalue("CCC(=O)N1CCN(c2ccc(/C=C/c3cc(-c4cccc(Br)c4)cc(-c4cccc(Br)c4)[o+]3)cc2)CC1")
12.8
>>> assayvalue("ClCCN(/C=C/c1cc(-c2cccc(Br)c2)cc(-c2cccc(Br)c2)[o+]1)CCCl")
49.3
>>> assayvalue("O=C(c1ccccc1)N1CCN(c2ccc(/C=C/c3cc(-c4ccc(F)cc4)cc(-c4ccc(F)cc4)[o+]3)cc2)CC1")
28.5
>>> assayvalue("CN(C)c1ccc(/C=C/c2cc(-c3ccc(F)cc3)cc(-c3ccc(F)cc3)[o+]2)cc1.F[B-](F)(F)F")
3.9
